# Test system: pigweed
# EXPERIMENT SUMMARY: Test A pre-/postemergence herbicide test
# Format: in vivo, Amaranthus retroflexus
# ASSAY SETUP: Postemergence, 125 g ai/ha; visual rating on 0 to 100 scale (0 no effect, 100 complete control), approx. 10 days
ASSAY READOUT: Plant response rating, Pigweed

COMPOUND: CC(C)(C)c1cccc(C2CNC(=O)C2C(=O)Nc2ccccc2F)c1 (centres unmarked) [Compound 347]
SYSTEM TESTED: pigweed
Plant response rating, Pigweed: 0

// sample O=C1NCC(c2cnn(CC(F)(F)F)c2)C1C(=O)Nc1cccc(F)c1F (centres unmarked) [Compound 299] , its Plant response rating, Pigweed was 0

Notebook: O=C1NCC(c2ccc(Cl)c(C(F)(F)F)c2)C1C(=O)Nc1cccc(F)c1F (racemic) [Compound 268] , Plant response rating, Pigweed read as 50

According to the records, this compound O=C1NCC(c2cc(F)cc(F)c2)C1C(=O)Nc1ccc(F)cc1F (racemic) [Compound 278] displays Plant response rating, Pigweed of 0

The compound O=C1NCC(c2cccc(C(F)(F)F)c2)C1C(=O)Nc1cccc(C(F)(F)F)c1 (centres unmarked) [Compound 313] showed Plant response rating, Pigweed equal to 0

Summary for this compound, O=C1NCC(c2cccc(C(F)(F)F)c2)C1C(=O)Nc1cccc(Cl)c1F (centres unmarked) [Compound 344] : Plant response rating, Pigweed is 0
